Tested on: HCT-116 colon
testSummary: NCI tumour cell line growth inhibition, 48 h

molecule: COc1cc2c(cn1)[nH]c1ccccc12
experimentalSystem: HCT-116 colon
TGI: > 100 µM

molecule: CSCCC(NC(=O)OCc1ccccc1)NC(=O)OCc1ccccc1
experimentalSystem: HCT-116 colon
TGI: > 100 µM

molecule: CCOC(=O)C(C(=O)OCC)=C1NC2(c3ccccc3Nc3ccc(C)cc32)C(C(=O)OC)S1 (stereo unspecified)
experimentalSystem: HCT-116 colon
TGI: > 100 µM

molecule: O=C1NN(c2ccccc2)C(=O)/C1=C/c1ccc(Br)o1
experimentalSystem: HCT-116 colon
TGI: 25.8 µM

molecule: Fc1ccc2[nH]cc(SSc3c[nH]c4ccc(F)cc34)c2c1
experimentalSystem: HCT-116 colon
TGI: > 100 µM

molecule: Nc1ccc(Oc2ccc(C34CC5CC6C3CC3CC4C(C5)C6(c4ccc(Oc5ccc(N)c(O)c5)cc4)C3)cc2)cc1O
experimentalSystem: HCT-116 colon
TGI: 11.1 µM

molecule: CC1(O)CCC2(C#N)CCC1C2O (stereo unspecified)
experimentalSystem: HCT-116 colon
TGI: > 100 µM

molecule: COc1ccccc1NC(=O)O/N=C(/Cl)C(C)C
experimentalSystem: HCT-116 colon
TGI: 29.3 µM

molecule: O=[N+]([O-])c1ccc2c(c1)c(S(=O)(=O)O)cc1nonc12
experimentalSystem: HCT-116 colon
TGI: > 100 µM

molecule: Cc1ccc2c(c1)CNc1ccc(C)cc1CN2
experimentalSystem: HCT-116 colon
TGI: > 100 µM

molecule: C1=Nc2ccccc2C=Nc2ccccc2C=Nc2ccccc2C=Nc2ccccc21.[Cl-].[Pt+2]
experimentalSystem: HCT-116 colon
TGI: > 100 µM

molecule: CSc1nc2c(=O)n(-c3ccccc3)c(=S)n(-c3ccccc3)c2s1
experimentalSystem: HCT-116 colon
TGI: > 100 µM

molecule: COC(=O)[C@H](Cc1ccccc1)NP(=O)(O)OCC1C=CC(n2cc(C)c(=O)[nH]c2=O)O1 (stereo partly specified)
experimentalSystem: HCT-116 colon
TGI: > 100 µM

molecule: COc1cc(/C=C(\OC(C)=O)c2ccc3c(c2)OCO3)cc(OC)c1OC
experimentalSystem: HCT-116 colon
TGI: 38.9 µM

molecule: CC[C@@]12C=CC(=S)N(CCSc3ccccc3)[C@@H]1c1c(n(S(=O)(=O)c3ccc(OC)cc3)c3ccccc13)CC2
experimentalSystem: HCT-116 colon
TGI: > 100 µM

molecule: COC(=O)C1C(OCc2ccccc2)C2CCC1(OC)C=C2C (stereo unspecified)
experimentalSystem: HCT-116 colon
TGI: > 100 µM

molecule: NS(=O)(=O)c1nnc(NS(=O)(=O)c2ccccc2C(=O)O)s1
experimentalSystem: HCT-116 colon
TGI: > 100 µM

molecule: O=C1C(NCCN2CCOCC2)=C(Cl)C(=O)c2ncccc21
experimentalSystem: HCT-116 colon
TGI: 1.14 µM

molecule: N#C/C(=C\c1ccc(Br)cc1)n1nnc2ccccc21
experimentalSystem: HCT-116 colon
TGI: 1.93 µM

molecule: COc1ccc2cc(C(=O)NCCCNC(=O)c3ccc4cc(OC)ccc4c3)ccc2c1
experimentalSystem: HCT-116 colon
TGI: > 100 µM

molecule: COc1cc(/C=C2\C(=O)Nc3cccc(Cl)c32)cc(OC)c1OC
experimentalSystem: HCT-116 colon
TGI: > 100 µM

* * *

Measured TGI values are reported for all entries that follow.
Test system: 786-0 renal
testSummary: NCI tumour cell line growth inhibition, 48 h

compound: CS(=O)(=O)OCCCOS(C)(=O)=O
TGI: > 100 µM
//
compound: NC(=O)c1nnsc1NC=O
TGI: > 100 µM
//
compound: O=c1c2cccnc2ncn1CCN1CCCC1
TGI: > 100 µM
//
compound: CC1(C)CC2(C)CC1CC2NC(=O)CCN1CCOCC1 (stereo not drawn)
TGI: > 100 µM
//
compound: O=C1ON=C2C3CC4CC12CC1(C3)C(=O)ON=C41
TGI: > 100 µM
//
compound: CC(=O)/C=C/c1ccc(C)cc1
TGI: > 100 µM
//
compound: CC1CCc2sc3[nH]c(=S)n(-c4ccccc4)c(=O)c3c2C1 (stereo not drawn)
TGI: > 100 µM
//
compound: Cc1ccc2c(c1)CNc1ccc(C)cc1CN2
TGI: > 100 µM
//
compound: Cc1[nH]nc2c1N=C(c1ccccc1Cl)c1cc([N+](=O)[O-])ccc1N2
TGI: > 17.1 µM
//
compound: N#Cc1nc(CCC(c2nc(C#N)c(N)o2)N2C(=O)c3ccccc3C2=O)oc1N (stereo not drawn)
TGI: > 100 µM
//
compound: N#Cc1c(N)nc(N2CCOCC2)c(C#N)c1-c1ccccc1Cl
TGI: > 100 µM
//
compound: NS(=O)(=O)c1ccc(NC(=O)c2cccc3cc4ccccc4nc23)cc1
TGI: > 100 µM
//
compound: Cc1nc2ccccc2n1Cc1nnc(N)o1
TGI: > 100 µM
//
compound: COc1ccc(-c2csc(NC(=O)c3cc(O)c(O)c(O)c3)n2)cc1
TGI: > 33.3 µM
//
compound: CCOC(=O)/C(=C\c1ccc[nH]1)C(=O)c1ccccc1
TGI: > 100 µM
//
compound: CC1(C)CCC(=O)NC1CC(=O)CC1NC(=O)CCC1(C)C (stereo not drawn)
TGI: > 100 µM
//
compound: O=c1c2ccccc2nc(-c2cccc(Cl)c2)n1NCC1(O)OCC(O)C(O)C1O (stereo not drawn)
TGI: > 100 µM
//
compound: CCOC(=O)c1cc(C(=O)c2cc(OC)c(OC)c(OC)c2)n2ccccc12
TGI: > 42.7 µM

* * *

System: HOP-92 NSCLC
testSummary: NCI tumour cell line growth inhibition, 48 h
Measured TGI values are reported for all entries that follow.
assayMetric: TGI (µM)

compound: c1ccc(COC2(OCc3ccccc3)CC3OC2C2NN=NC32)cc1 (stereo not given)
assayMetric: TGI
censoringQualifier: =
readoutValue: 40.8
--
compound: Cc1ccc2c(c1)CNc1ccc(C)cc1CN2
assayMetric: TGI
censoringQualifier: >
readoutValue: 100
--
compound: CCOC(=O)CSc1[nH]c(NC(=S)Nc2ccccc2)c(C(N)=O)c1C(N)=O
assayMetric: TGI
censoringQualifier: >
readoutValue: 10
--
compound: O=C1c2ccccc2-c2nc(/C=C/c3ccccc3)cc3c2c1nc1ccccc13
assayMetric: TGI
censoringQualifier: >
readoutValue: 100
--
compound: C=CCCCCCCCCCOC1C=CC(OC(C)=O)C(COC(C)=O)O1 (stereo not given)
assayMetric: TGI
censoringQualifier: >
readoutValue: 100
--
compound: O=C(OCCC12CC3CC(CC(C3)C1)C2)c1ccc(NCc2cc(O)ccc2O)cc1
assayMetric: TGI
censoringQualifier: =
readoutValue: 16.8
--
compound: Oc1ccc(O)c(CNc2ccccc2)c1
assayMetric: TGI
censoringQualifier: =
readoutValue: 20.8
--
compound: Clc1nc(Cl)c(CBr)c(Cl)n1
assayMetric: TGI
censoringQualifier: =
readoutValue: 5.07
--
compound: C=C1C(=O)O[C@H]2[C@H]1CC/C(Cn1cc(-c3cc(C)c(C)cc3C)nn1)=C\CC[C@@]1(C)O[C@@H]21
assayMetric: TGI
censoringQualifier: =
readoutValue: 1.68
--
compound: CCN(CC)CCCC(C)NC(=O)c1ccc2c(c1)C(=O)c1ccccc1C2=O (stereo not given)
assayMetric: TGI
censoringQualifier: =
readoutValue: 63.7
--
compound: COc1cc2c(cn1)[nH]c1ccccc12
assayMetric: TGI
censoringQualifier: >
readoutValue: 100
--
compound: O=C1CCS/C(=N\S(=O)(=O)c2ccc(N3N=C4c5ccccc5CC4C3c3cccs3)cc2)N1C(=O)c1ccccc1 (stereo not given)
assayMetric: TGI
censoringQualifier: >
readoutValue: 100
--
compound: COc1ccccc1/C=C/C(=O)/C=C/c1ccccc1OC
assayMetric: TGI
censoringQualifier: =
readoutValue: 5.04
--
compound: NC(CC1=CCC=CC1)C(=O)O (stereo not given)
assayMetric: TGI
censoringQualifier: >
readoutValue: 100
--
compound: Cc1c2c(cc3c(=O)ccn(CCN(C)C)c13)c(=O)ccn2CCN(C)C
assayMetric: TGI
censoringQualifier: =
readoutValue: 31.3
--
compound: C=CCn1cc(C(=O)NC(=O)NCCCCCOC(=O)CCCCCCCCCCC(=O)OCCCCCNC(=O)NC(=O)c2cn(CC=C)c(=O)n(C)c2=O)c(=O)n(C)c1=O
assayMetric: TGI
censoringQualifier: >
readoutValue: 100
--
compound: O=[N+]([O-])c1ccc2c(c1)c(S(=O)(=O)O)cc1nonc12
assayMetric: TGI
censoringQualifier: >
readoutValue: 100
--
compound: N#C/C(=C\c1ccc(Br)cc1)n1nnc2ccccc21
assayMetric: TGI
censoringQualifier: =
readoutValue: 1.58
--
compound: Cc1cc2cn3c4cccnc4[nH]c(=O)c3c2cc1C
assayMetric: TGI
censoringQualifier: =
readoutValue: 2.65
--
compound: O=C(CC1C=CCS1(=O)=O)NCc1ccccc1 (stereo not given)
assayMetric: TGI
censoringQualifier: >
readoutValue: 100
